biological target: Amyloid-beta precursor protein (Homo sapiens); test: Binding affinity to human amyloid beta (1 to 42) fibril by fluorescence intensity assay
Sequence (P05067 whole entry): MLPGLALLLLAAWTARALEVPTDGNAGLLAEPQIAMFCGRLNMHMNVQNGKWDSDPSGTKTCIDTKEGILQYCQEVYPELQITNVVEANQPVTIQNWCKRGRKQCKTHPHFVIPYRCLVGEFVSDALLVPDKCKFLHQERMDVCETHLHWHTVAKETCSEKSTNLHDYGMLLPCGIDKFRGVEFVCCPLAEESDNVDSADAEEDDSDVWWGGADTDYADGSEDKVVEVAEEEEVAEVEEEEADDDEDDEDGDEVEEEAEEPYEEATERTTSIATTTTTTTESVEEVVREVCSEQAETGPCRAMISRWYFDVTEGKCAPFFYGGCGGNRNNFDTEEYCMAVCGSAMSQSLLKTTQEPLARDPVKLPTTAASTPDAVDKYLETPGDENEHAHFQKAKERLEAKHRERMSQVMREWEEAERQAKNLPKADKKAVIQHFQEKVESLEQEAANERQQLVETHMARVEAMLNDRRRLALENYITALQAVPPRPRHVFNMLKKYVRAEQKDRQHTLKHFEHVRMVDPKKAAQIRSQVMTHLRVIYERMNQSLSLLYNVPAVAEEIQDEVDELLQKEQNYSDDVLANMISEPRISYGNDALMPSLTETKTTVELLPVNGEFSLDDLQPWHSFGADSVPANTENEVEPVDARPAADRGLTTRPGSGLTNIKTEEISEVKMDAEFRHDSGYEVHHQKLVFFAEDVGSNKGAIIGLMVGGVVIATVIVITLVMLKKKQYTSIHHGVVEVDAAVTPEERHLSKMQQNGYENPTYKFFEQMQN
Friendly reminder: Kd below 200 nM is Criterion met, at or above is Criterion not met.

Record smiles	Label value
CN(CCF)c1ccc(/C=C\c2nc3ccccc3o2)cc1	Criterion met
CN(CCF)c1ccc(/C=C/c2nc3ccccc3o2)cc1	Criterion not met
CN(CCF)c1ccc(/C=C\c2nc3ccccc3n2C)cc1	Criterion not met
CN(CCF)c1ccc(/C=C/c2nc3ccccc3s2)cc1	Criterion met
CN(CCF)c1ccc(/C=C\c2nc3ccccc3s2)cc1	Criterion met
CN(CCF)c1ccc(/C=C/c2nc3ccccc3n2C)cc1	Criterion met

Please determine if CN(CCF)c1ccc(/C=C/c2nc3ccccc3[nH]2)cc1 is below 200 nM in terms of Kd.
Criterion not met
